- SYSTEM TESTED: GABAA receptor ([35S]-TBPS binding site, rat brain cortical membranes)
- METHOD: Displacement of [35S]-TBPS binding, rat brain cortical membranes
- MEASUREMENT CONTEXT: 5 μM GABA, 2 nM [35S]-TBPS; ± standard error of the means
REPORTED PROPERTY: IC50 (nM)

COMPOUND: CC12CCC(O)CC1CCC1C2CCC23CCCC(O)C2CCC13 (stereo not drawn) [Compound 67]
MEASUREMENT UNITS: nM
RESULT NUMBER: 613
//
COMPOUND: C[C@]12CC[C@@H](O)C[C@@H]1CCC1C3CC[C@@H]4C[C@@H](C#N)CC[C@]34CCC12 (stereo partly drawn) [Compound 44]
MEASUREMENT UNITS: nM
RESULT NUMBER: 585
//
COMPOUND: CC12CCC(O)CC1CCC1C2CCC23CCC(=O)C2CCC13 (stereo not drawn) [Compound 89]
MEASUREMENT UNITS: nM
RESULT NUMBER: 204
//
COMPOUND: CC12CCC(O)CC1CCC1C2CCC23CC=CC(=O)C2CCC13 (stereo not drawn) [Compound 11b]
MEASUREMENT UNITS: nM
RESULT NUMBER: 1570
//
COMPOUND: C[C@]12CC[C@@H](O)C[C@@H]1CCC1C3CC[C@@H]4CC(=O)CC[C@]34CCC12 (stereo partly drawn) [Compound 3a]
MEASUREMENT UNITS: nM
RESULT NUMBER: 1440
//
COMPOUND: CC(=O)C1=CCCC23CCC4C(CCC5CC(O)CCC54C)C2CCC13 (stereo not drawn) [Compound 83]
MEASUREMENT UNITS: nM
RESULT NUMBER: 3190
//
COMPOUND: CC12CCC(O)CC1CCC1C2CCC23CC4OC4C(=O)C2CCC13 (stereo not drawn) [Compound 19a]
MEASUREMENT UNITS: nM
RESULT NUMBER: 370
//
COMPOUND: COC1CCCC23CCC4C(CCC5CC(O)CCC54C)C2CCC13 (stereo not drawn) [Compound 70]
MEASUREMENT UNITS: nM
RESULT NUMBER: 868
//
COMPOUND: CC12CCC(O)CC1CCC1C2CCC23C(=O)C=CCC2CCC13 (stereo not drawn) [Compound 35a]
MEASUREMENT UNITS: nM
RESULT NUMBER: 197
//
COMPOUND: CC12CCC(O)CC1CCC1C2CCC23C(=O)CCCC2CCC13 (stereo not drawn) [Compound 5b]
MEASUREMENT UNITS: nM
RESULT NUMBER: 329
//
COMPOUND: CC12CCC(O)CC1CCC1C2CCC23C=CC(=O)CC2CCC13 (stereo not drawn) [Compound 30a]
MEASUREMENT UNITS: nM
RESULT NUMBER: 1260
//
COMPOUND: CC12CCC(O)CC1CCC1C2CCC23C=C(Br)C(=O)C2CCC13 (stereo not drawn) [Compound 95]
MEASUREMENT UNITS: nM
RESULT NUMBER: 94

====

Some compounds, each annotated with its measured LRR ED50 (loss of righting response).
- Test system: Xenopus laevis tadpoles
- METHOD: Tadpole loss of righting (LRR) and swimming (LSR) reflexes
- Format: in vivo
- MEASUREMENT CONTEXT: 3 h equilibration at room temperature

COMPOUND: CC12CCC(O)CC1CCC1C2CCC23CCCC(O)C2CCC13 (stereo not drawn) [Compound 68]
LRR ED50 (loss of righting response): >10 µM

COMPOUND: CC12CCC(O)CC1CCC1C2CCC23CCC(=CC#N)C2CCC13 (stereo not drawn) [Compound 97]
LRR ED50 (loss of righting response): >10 µM

Source: patent US7781421B2
